system: S. pneum 1256 (erm); assay: microbe, parasite or virus in culture; assay type: cell-based, streptococcus pneumoniae; conditions: agar dilution, 18-24 hours, 35±2° C., 5% CO2; erm: ribosomal modification (mutation) erm genes
Readout name: Minimum Inhibitory Concentrations, S. pneum 1256 (erm)

Lab note: measured Minimum Inhibitory Concentrations, S. pneum 1256 (erm) of CCC1OC(=O)C(C)C(OC(=O)Cc2ccc3ccccc3c2)C(C)C(OC2OC(C)CC(N(C)Cc3ccccc3)C2O)C(C)(OC)CC(C)C(=O)C(C)C(O)C1(C)O (stereo not shown) was >16 µg/mL

Lookup result for CCC1OC(=O)C(C)C(OC(=O)Cc2ccc(F)cc2)C(C)C(OC2OC(C)CC(N(C)Cc3ccc([N+](=O)[O-])cc3)C2O)C(C)(OC)CC(C)C(=O)C(C)C(O)C1(C)O (stereo not shown) ; measured Minimum Inhibitory Concentrations, S. pneum 1256 (erm): >16 µg/mL

Input CC[C@H]1OC(=O)[C@H](C)[C@@H](O[C@H]2C[C@@](C)(OC)[C@@H](O)[C@H](C)O2)[C@H](C)[C@@H](O[C@@H]2O[C@H](C)C[C@H](N(C)C)[C@H]2O)[C@](C)(O)C[C@@H](C)C(=O)[C@H](C)[C@@H](O)[C@]1(C)O [E, erythromycin A, reference compound] . Output Minimum Inhibitory Concentrations, S. pneum 1256 (erm): >16 µg/mL

Recorded Minimum Inhibitory Concentrations, S. pneum 1256 (erm) (molecule CCC1OC(=O)C(C)C(OC(=O)Cc2ccccc2F)C(C)C(OC2OC(C)CC(N(C)Cc3ccc(F)cc3)C2O)C(C)(OC)CC(C)C(=O)C(C)C(O)C1(C)O (stereo not shown) ): >8 µg/mL

Reference for the values: patent US20070270484A1
